These measurements were taken from paper PMC9785542.

# TARGET ENTITY: Human recombinant N-ter-GST-HDAC-6 (Homo sapiens)
# Sequence (Q9UBN7 whole entry): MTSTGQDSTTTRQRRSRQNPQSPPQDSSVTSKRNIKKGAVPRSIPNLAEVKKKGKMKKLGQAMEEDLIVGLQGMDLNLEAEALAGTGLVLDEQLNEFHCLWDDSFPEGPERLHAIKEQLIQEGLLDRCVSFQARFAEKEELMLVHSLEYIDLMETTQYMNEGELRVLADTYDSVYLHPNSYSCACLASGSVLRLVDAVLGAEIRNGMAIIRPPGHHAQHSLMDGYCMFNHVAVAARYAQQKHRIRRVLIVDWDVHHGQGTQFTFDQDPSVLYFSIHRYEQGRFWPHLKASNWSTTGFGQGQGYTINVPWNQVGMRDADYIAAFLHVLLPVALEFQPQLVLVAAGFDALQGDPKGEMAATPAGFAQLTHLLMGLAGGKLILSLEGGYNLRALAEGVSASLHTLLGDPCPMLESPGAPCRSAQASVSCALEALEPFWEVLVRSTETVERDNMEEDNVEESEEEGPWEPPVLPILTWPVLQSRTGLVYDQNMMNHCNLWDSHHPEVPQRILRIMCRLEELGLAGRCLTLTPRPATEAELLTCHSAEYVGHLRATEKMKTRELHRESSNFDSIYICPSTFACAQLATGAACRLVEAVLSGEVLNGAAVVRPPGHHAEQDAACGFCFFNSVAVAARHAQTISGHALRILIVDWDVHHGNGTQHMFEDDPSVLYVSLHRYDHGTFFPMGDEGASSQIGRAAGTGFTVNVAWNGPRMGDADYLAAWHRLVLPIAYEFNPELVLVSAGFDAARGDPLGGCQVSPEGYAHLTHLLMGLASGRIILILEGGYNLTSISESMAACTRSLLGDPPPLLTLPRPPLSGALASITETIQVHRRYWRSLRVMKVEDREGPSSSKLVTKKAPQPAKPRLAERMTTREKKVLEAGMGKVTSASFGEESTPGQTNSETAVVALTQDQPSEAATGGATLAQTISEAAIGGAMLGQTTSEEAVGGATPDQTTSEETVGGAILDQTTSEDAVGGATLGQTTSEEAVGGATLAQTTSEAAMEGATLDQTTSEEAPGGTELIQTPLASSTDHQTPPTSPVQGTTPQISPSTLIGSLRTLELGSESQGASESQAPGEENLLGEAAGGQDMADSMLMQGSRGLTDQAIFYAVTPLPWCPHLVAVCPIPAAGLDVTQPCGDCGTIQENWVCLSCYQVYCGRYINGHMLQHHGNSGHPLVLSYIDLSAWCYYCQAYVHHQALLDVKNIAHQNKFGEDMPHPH
# ASSAY INFO: HDAC-Glo I/II bioluminogenic enzyme assay, HDAC6
# Type: biochemical
# Set-up: GST (N); purchased BPS Bioscience 50006
# CONDITION DETAILS: ratio of IC50 values
READOUT KIND: Selectivity Ratio HDAC8/6

[[record]]
compound = "O=C(CCCCCCN1CCN(C(c2ccccc2)c2ccccc2)CC1)NO"
target_entity = "Human recombinant N-ter-GST-HDAC-6 (Homo sapiens)"
reported_measurement = 3.6

[[record]]
compound = "O=C(NO)c1ccc(CN2CCN(C(c3ccccc3)c3ccccc3)CC2)cc1"
target_entity = "Human recombinant N-ter-GST-HDAC-6 (Homo sapiens)"
reported_measurement = 23

[[record]]
compound = "O=C(CCCCCCCN1CCN(C(c2ccccc2)c2ccccc2)CC1)NO"
target_entity = "Human recombinant N-ter-GST-HDAC-6 (Homo sapiens)"
reported_measurement = 2

[[record]]
compound = "O=C(CCCCCN1CCN(C(c2ccccc2)c2ccccc2)CC1)NO"
target_entity = "Human recombinant N-ter-GST-HDAC-6 (Homo sapiens)"
reported_measurement = 13.1

